Values from paper PMC2959089

# assay.system: T1, recombinant human Cyclophilin A (CypA) (human, UniProt P62937 1-165)
# T1 construct: also called human peptidyl prolyl isomerase CypA; source: E. coli BL21(DE3), pET11c, purified (DEAE-Sepharose flow-through, MonoS cation exchange)
# T1 sequence (P62937 whole entry): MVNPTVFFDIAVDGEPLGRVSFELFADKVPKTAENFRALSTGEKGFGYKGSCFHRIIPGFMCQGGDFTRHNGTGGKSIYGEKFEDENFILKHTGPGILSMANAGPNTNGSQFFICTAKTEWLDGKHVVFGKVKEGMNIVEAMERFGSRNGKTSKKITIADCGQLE
# protocol: SPR
# assay.context: both partners purified
recorded.endpoint: Kd (µM)

binder	recorded.endpoint	assay.result
HFPRI (source: synthetic peptide) [synthetic HIV-1 Vpr peptide sVpr^33-37]	Kd	3570
ELLEELKSEAVRHFPRIWLH (source: synthetic peptide) [synthetic HIV-1 Vpr peptide sVpr^21-40]	Kd	201
AVRHFPRIWLH (source: synthetic peptide) [synthetic HIV-1 Vpr peptide sVpr^30-40]	Kd	167
ELKSEAVRHFPRIWLH (source: synthetic peptide) [synthetic HIV-1 Vpr peptide sVpr^25-40]	Kd	404
RHFPRIW (source: synthetic peptide) [synthetic HIV-1 Vpr peptide sVpr^32-38]	Kd	487
